Reference source: ChEMBL document CHEMBL1140785

Documented inhibition at 10 µM across a set of compounds
# assayedSystem: UniProt P11712
# Sequence (P11712 whole entry): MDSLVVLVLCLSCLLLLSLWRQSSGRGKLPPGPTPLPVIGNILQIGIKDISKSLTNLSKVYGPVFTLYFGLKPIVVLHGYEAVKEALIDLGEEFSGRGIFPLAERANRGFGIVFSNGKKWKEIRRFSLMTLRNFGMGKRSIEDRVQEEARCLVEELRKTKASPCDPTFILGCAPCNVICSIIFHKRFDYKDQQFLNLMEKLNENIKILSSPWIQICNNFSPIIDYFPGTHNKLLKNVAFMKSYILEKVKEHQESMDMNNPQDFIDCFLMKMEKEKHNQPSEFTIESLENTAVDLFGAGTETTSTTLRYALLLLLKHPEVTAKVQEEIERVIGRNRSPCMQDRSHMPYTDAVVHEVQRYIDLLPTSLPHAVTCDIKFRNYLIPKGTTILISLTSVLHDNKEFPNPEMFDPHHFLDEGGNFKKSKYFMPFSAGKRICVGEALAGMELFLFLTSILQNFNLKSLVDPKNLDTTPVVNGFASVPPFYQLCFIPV
# experiment: Inhibition of hepatic CYP2C9 at 10 uM
# Assay type: ADME
Please state the figure in %; there is no need to write the unit.

Reference set (2 entries):
- compound: "C[C@]12CC[C@H](O)CC1=CC[C@@H]1[C@@H]2CC[C@]2(C)C(c3cccnc3)=CC[C@@H]12"
  unitSymbol: "%"
  inhibition at 10 µM: 51
- compound: "COc1ccc2cc(-c3cccc(Cn4ccnc4)c3)ccc2c1"
  unitSymbol: "%"
  inhibition at 10 µM: 100

Send back UniProt P11712 inhibition at 10 µM of Oc1ccc2cc(-c3cccc(-c4ccncc4)c3)ccc2c1 only.
97

Send back UniProt P11712 inhibition at 10 µM of COc1ccc2cc(-c3ccc(F)cc3)ccc2c1Cn1ccnc1 only.
100

Send back UniProt P11712 inhibition at 10 µM of COc1ccc2cc(-c3ccc(F)cc3)ccc2c1-c1cccnc1 only.
54

Send back UniProt P11712 inhibition at 10 µM of CC(=O)N1CCN(c2ccc(OCC3COC(Cn4ccnc4)(c4ccc(Cl)cc4Cl)O3)cc2)CC1 (stereo unspecified) only.
75

----------
# assayedSystem: Steroid 17-alpha-hydroxylase/17,20 lyase (Homo sapiens)
# Sequence (P05093 whole entry): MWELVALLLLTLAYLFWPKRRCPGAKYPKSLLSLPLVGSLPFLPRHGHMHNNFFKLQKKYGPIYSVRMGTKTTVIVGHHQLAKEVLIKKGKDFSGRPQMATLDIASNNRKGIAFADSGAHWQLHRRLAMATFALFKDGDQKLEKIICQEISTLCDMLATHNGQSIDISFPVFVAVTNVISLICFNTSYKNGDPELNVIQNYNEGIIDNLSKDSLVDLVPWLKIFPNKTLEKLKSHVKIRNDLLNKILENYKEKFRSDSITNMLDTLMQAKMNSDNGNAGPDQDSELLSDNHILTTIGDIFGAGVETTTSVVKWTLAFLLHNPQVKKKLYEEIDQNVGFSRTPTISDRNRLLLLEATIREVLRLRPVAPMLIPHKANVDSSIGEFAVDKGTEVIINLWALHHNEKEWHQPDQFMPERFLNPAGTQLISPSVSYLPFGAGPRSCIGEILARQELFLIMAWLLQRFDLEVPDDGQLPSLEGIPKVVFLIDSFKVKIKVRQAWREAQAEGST
# experiment: Inhibition of human CYP17 expressed in Escherichia coli at 0.2 uM
Please note: 1.0 applies when inhibition at 0.2 µM is 3% or greater, and 0.0 applies otherwise.

Study these solved cases before continuing.
- chemSmiles: "Fc1ccc(-c2cc(Cn3ccnc3)c3ccccc3c2)cc1"
  qualitativeLabel: 1.0
- chemSmiles: "Fc1ccc(-c2ccc3cc(-c4cccnc4)ccc3c2)cc1"
  qualitativeLabel: 0.0
- chemSmiles: "COc1ccc2cc(-c3cccc(Cn4ccnc4)c3)ccc2c1"
  qualitativeLabel: 0.0
- chemSmiles: "COc1ccc2cc(-c3ccc(F)cc3)ccc2c1-c1cccnc1"
  qualitativeLabel: 1.0
- chemSmiles: "Oc1ccc2cc(-c3ccc(Cn4ccnc4)cc3)ccc2c1"
  qualitativeLabel: 1.0

Hi, just wondering whether Fc1ccc(-c2ccc3c(Cn4ccnc4)cccc3c2)cc1 shows inhibition at 0.2 µM of 3% or higher.
0.0

Hi, just wondering whether Oc1ccc2cc(-c3ccc(F)cc3)ccc2c1-c1cccnc1 shows inhibition at 0.2 µM of 3% or higher.
0.0

Hi, just wondering whether COc1ccc2cc(-c3cccc(-c4ccncc4)c3)ccc2c1 shows inhibition at 0.2 µM of 3% or higher.
1.0

Hi, just wondering whether Oc1ccc2cc(-c3cccc(-c4ccncc4)c3)ccc2c1 shows inhibition at 0.2 µM of 3% or higher.
1.0

Hi, just wondering whether Fc1ccc(-c2ccc3c(-c4cccnc4)cccc3c2)cc1 shows inhibition at 0.2 µM of 3% or higher.
0.0

----------
# assayedSystem: UniProtKB P05177
# Sequence (P05177 whole entry): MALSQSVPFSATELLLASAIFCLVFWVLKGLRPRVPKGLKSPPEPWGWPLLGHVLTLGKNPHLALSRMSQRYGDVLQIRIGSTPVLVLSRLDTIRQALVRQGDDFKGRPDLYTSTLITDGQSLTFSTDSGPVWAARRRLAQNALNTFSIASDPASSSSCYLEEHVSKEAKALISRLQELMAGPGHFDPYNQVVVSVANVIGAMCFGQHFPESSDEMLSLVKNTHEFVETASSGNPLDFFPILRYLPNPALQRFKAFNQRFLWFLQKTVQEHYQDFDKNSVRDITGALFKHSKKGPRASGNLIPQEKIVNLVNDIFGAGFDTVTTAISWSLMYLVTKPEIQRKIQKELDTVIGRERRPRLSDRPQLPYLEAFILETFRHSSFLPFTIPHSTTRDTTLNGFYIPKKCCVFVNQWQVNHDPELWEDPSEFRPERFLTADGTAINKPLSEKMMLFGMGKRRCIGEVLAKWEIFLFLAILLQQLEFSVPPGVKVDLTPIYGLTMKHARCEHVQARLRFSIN
# experiment: Inhibition of hepatic CYP1A2 at 10 uM
# Format: ADME
Please note: Y applies when inhibition at 10 µM is 50% or greater, and N applies otherwise.

- molecule: "Oc1ccc2cc(-c3cccc(-c4ccncc4)c3)ccc2c1"
  assayedSystem: "UniProtKB P05177"
  qualitativeLabel: "Y"
- molecule: "COc1ccc2cc(-c3ccc(F)cc3)ccc2c1Cn1ccnc1"
  assayedSystem: "UniProtKB P05177"
  qualitativeLabel: "Y"
- molecule: "COc1ccc2cc(-c3ccc(F)cc3)ccc2c1-c1cccnc1"
  assayedSystem: "UniProtKB P05177"
  qualitativeLabel: "Y"
- molecule: "CC(=O)N1CCN(c2ccc(OCC3COC(Cn4ccnc4)(c4ccc(Cl)cc4Cl)O3)cc2)CC1 (stereo unspecified) [KETOCONAZOLE]"
  assayedSystem: "UniProtKB P05177"
  qualitativeLabel: "N"
- molecule: "C[C@]12CC[C@H](O)CC1=CC[C@@H]1[C@@H]2CC[C@]2(C)C(c3cccnc3)=CC[C@@H]12 [ABIRATERONE]"
  assayedSystem: "UniProtKB P05177"
  qualitativeLabel: "Y"

We now examine a further molecule.
Hi, just wondering whether COc1ccc2cc(-c3cccc(Cn4ccnc4)c3)ccc2c1 shows inhibition at 10 µM of 50% or higher.
Y
